meta.source: ChEMBL document CHEMBL1139141

Test system: MCF7
Assay: Growth inhibition of human MCF7 cells by SRB assay
Format: functional, cell-based
measured_endpoint: pIC50
The scale used: pIC50 is minus the common logarithm of the concentration in molar units.

> print(dat)
                              line.notation  assay.target  measured.result
1  CN(C)c1ccc(Nc2c3ccc(NC(=O)CCN4CCCC4)cc3nc3cc(NC(=O)CCN4CCCC4)ccc23)cc1          MCF7             5.60
2  Cc1cccc(CNc2c3ccc(NC(=O)CCN4CCCC4)cc3nc3cc(NC(=O)CCN4CCCC4)ccc23)c1          MCF7             5.52
3  COc1cc(CNc2c3ccc(NC(=O)CCN4CCCCC4)cc3nc3cc(NC(=O)CCN4CCCCC4)ccc23)cc(OC)c1          MCF7             6.70
4  O=C(CCN1CCCC1)Nc1ccc2c(NCc3cc(C(F)(F)F)cc(C(F)(F)F)c3)c3ccc(NC(=O)CCN4CCCC4)cc3nc2c1          MCF7             5.97
5  O=C(CCN1CCCC1)Nc1ccc2c(NCc3cc(F)cc(C(F)(F)F)c3)c3ccc(NC(=O)CCN4CCCC4)cc3nc2c1          MCF7             6.00

Q. Please look at this compound and report its pIC50: Cc1cccc(CNc2c3ccc(NC(=O)CCN4CCCCC4)cc3nc3cc(NC(=O)CCN4CCCCC4)ccc23)c1
A. 6.34

Q. // fetch pIC50 given entry COc1cc(CNc2c3ccc(NC(=O)CCN4CCCC4)cc3nc3cc(NC(=O)CCN4CCCC4)ccc23)cc(OC)c1
A. 5.43

Q. Give the reported value of pIC50 for this record: Cc1cccc(CNc2c3ccc(NC(=O)CCN4CCC(C)CC4)cc3nc3cc(NC(=O)CCN4CCC(C)CC4)ccc23)c1
A. 6.24
